system: LOX IMVI; test: NCI tumour cell line growth inhibition, 48 h
Activity calls are given as the source filed them. Cut-off read from the data, not from the text of the source: active = GI50 up to about 1.1 µM and inactive = higher.
# GI50 per entry

Take a look at these entries with their results.
compound=CCCCCCCCCCn1cccc1/C=C/c1ccc(/C=C/c2cccn2CCCCCCCCCC)cc1 result="> 100 µM (inactive)"
compound=C/C(=N\NC(=O)CC#N)c1c(O)cc(C)oc1=O result="> 100 µM (inactive)"
compound="CC(C)(C)OC(=O)C1/C(=C/CBr)CN1C(=O)OC(C)(C)C (stereo not given)" result="3.24 µM (inactive)"
compound=Cc1cccc2c(=O)c3cccc([C@H](C)C(=O)O)c3oc12 result="> 100 µM (inactive)"
compound=Cn1c([N+](=O)[O-])cnc1CN1CCN(CCO)CC1 result="> 100 µM (inactive)"

## Task For "CN(C)c1ccc(/C=C2\N=C(c3ccccc3)N(/N=C3\C(=O)Nc4ccccc43)C2=O)cc1" , what is its reported GI50?
## Result 28.8 µM (inactive)

## Task Next entry: "COc1ccc2c(n1)Sc1nc3ccccc3nc1N2"
## Result 31.4 µM (inactive)

## Task Next entry: Clc1ccc(C2SCc3nc4ccccc4n32)c(Cl)c1 (stereo not given)
## Result 15.3 µM (inactive)

## Task Next entry: C1=C2C3=[N+](CCCCC3)CC2Cc2ccsc21 (stereo not given)
## Result 84.7 µM (inactive)

---

test system: HT-29; experiment: NCI tumour cell line growth inhibition, 48 h
The source made the active and inactive calls. Cut-off read from the data, not from the text of the source: active = GI50 up to about 1.1 µM and inactive = higher.
Answer with one of the outcomes true (1) for active, false (0) for inactive

compound="O=C(O)CC(NC(=O)C(F)(F)F)C(=O)NC1Cc2ccccc2OC1=O (stereo not drawn)" discrete_label="false (0)"

## Task Query: recorded result category for "CCSc1nc(N2CCCC2)s[s+]1.[O-][Cl+3]([O-])([O-])[O-]" in this test
## Result true (1)

---

# GI50 per entry
tested on: OVCAR-8; experiment: NCI tumour cell line growth inhibition, 48 h
The source made the active and inactive calls. Rule as the data show it: active = GI50 up to about 1.1 µM and inactive = higher.

Take a look at these entries with their results.
molecule=COc1cc(/C=C/C(=O)c2sc(NNC(C)=O)nc2C)ccc1O property=GI50 result="> 100 µM (inactive)"
molecule="CSCSCC(CO)NC(=O)/C(C)=C\\c1c(C)[nH]c(=O)[nH]c1=O (configuration not stated)" property=GI50 result="> 250 µM (inactive)"
molecule="COc1cc(C2S/C(=C/c3ccccc3)C(=O)N2c2ccccn2)cc(OC)c1OC (configuration not stated)" property=GI50 result="9.2 µM (inactive)"
molecule=COC(=O)N/N=C(\Cc1ccccc1)CN(C)C property=GI50 result="> 100 µM (inactive)"

## Task For "CC(=O)O[C@H]1CC[C@@]2(C)C(=CC[C@@H]3[C@@H]2CC[C@]2(C)c4c(cc(C#N)c(=N)n4C(C)=O)C[C@@H]32)C1" , what is its reported GI50?
## Result 16.7 µM (inactive)

## Task Next entry: "CCOC(=O)C1(C(=O)OCC)C[C@]23OCCC(=O)[C@H]2[C@H]2C(=O)OC(C)(C)O[C@]23C1"
## Result > 100 µM (inactive)

## Task Next entry: "N#Cc1nc(C#N)c(NC(=O)c2ccccc2C(=O)O)[nH]1"
## Result > 100 µM (inactive)

## Task Next entry: NC(CC1=CS(=O)(=O)c2ccc(Cl)cc21)C(=O)O (configuration not stated)
## Result > 100 µM (inactive)

## Task Next entry: CC(O)C1OC(n2ccc(=O)[nH]c2=O)CC1n1cncn1 (configuration not stated)
## Result > 100 µM (inactive)

## Task Next entry: "Cc1ccc(S(=O)(=O)OC2=C/C(=N\c3onc(C)c3C)c3ccccc3C2=O)cc1"
## Result 18.3 µM (inactive)

## Task Next entry: O=C(O)C1C2C=CC(O2)C1C(=O)Nc1ncccn1 (configuration not stated)
## Result > 100 µM (inactive)

## Task Next entry: CCOC(=O)CCC(NC(=O)c1ccc(Nc2nc3ccccc3n3cccc23)cc1)C(=O)OCC (configuration not stated)
## Result 19.6 µM (inactive)

Entry source: ChEMBL document CHEMBL1201862
